System: S. pyogenes C721
Assay: MIC by microtitre broth dilution
Type: cell-based
Conditions: Gram+, wt, Todd Hewitt broth, 37° C., 24 h
endpoint: Minimum inhibitory concentration

Ask: Given the compound COc1cc([C@@H]2c3cc4c(cc3[C@@H](O[C@@H]3O[C@@H]5CO[C@@H](C)O[C@H]5[C@H](O)[C@H]3O)[C@H]3COC(=O)[C@H]23)OCO4)cc(OC)c1O [etoposide] , what is its reported Minimum inhibitory concentration?
Result: 10^−5 Molar

Ask: Look at this compound and give its reported Minimum inhibitory concentration. NC(=O)NO [hydroxyurea]
Result: 10^−4 Molar

Ask: Can you share its Minimum inhibitory concentration? I mean this compound: CC[C@@]1(O)C(=O)OCc2c1cc1n(c2=O)Cc2cc3ccccc3nc2-1
Result: N

Ask: Bench note: what Minimum inhibitory concentration did COc1cccc2c1C(=O)c1c(O)c3c(c(O)c1C2=O)C[C@@](O)(C(=O)CO)C[C@@H]3O[C@H]1C[C@H](N)[C@H](O)[C@H](C)O1 show?
Result: 10^−7 Molar

Ask: Which Minimum inhibitory concentration is listed for N.N.[Cl][Pt][Cl] [cisplatin] ?
Result: N

Would you mind giving Minimum inhibitory concentration for every compound in the list below?
1. O=c1[nH]cc(F)c(=O)[nH]1
2. Nc1ncnc2c1ccn2[C@@H]1O[C@H](CO)[C@@H](O)[C@H]1O
3. Nc1ccn([C@@H]2O[C@H](CO)[C@@H](O)[C@@H]2O)c(=O)n1

Result:
10^−4 Molar
N
N
